Substrate: O=C(O)C(=O)Cc1ccc(O)c(O)c1
Experiment: purified protein
Type: biochemical, Lactobacillus sp. CGMCC 9967
Conditions: 2 mM NADH, Tris-HCl 50 mM pH 7.0, 30 °C
Exercise: for every item that follows, state its recorded Km.
Answers are plain numbers, in mM.

The cases that follow already have their Km on record.
Km for LaPPR (Lactobacillus sp. CGMCC 9967; H143D) (protein, homodimer) MMKILNSFSLKPEQRQTLEAAGHTVIDADKLDDATAQQIDVVYGWNAAATRVNFDRLQFVQAMSAGVDYLPLAELAKHHVLLANTSGIHAEPIAEYVLGALFTISRGILPAIRADRDMWTLRQERPPMTLLKGKTAVIFGTGDIGSTIATKLQALGLHTIGVSAHGRPAAGFDQVMTDVATHEAAGRADVVINALPLTPDTKHFYDEAFFAAASKQPLFINIGRGPSVDMAALTQALKNKQISAAALDVVDPEPLPQDSPLWGMTNVLLTPHISGTVPQLRDKVFKIFNDNLKTLISSGQLASHQVDLTRGY ?
5.03

Fill in the blank: the reported Km of LaPPR (Lactobacillus sp. CGMCC 9967; H143D/H89M) (protein, homodimer) MMKILNSFSLKPEQRQTLEAAGHTVIDADKLDDATAQQIDVVYGWNAAATRVNFDRLQFVQAMSAGVDYLPLAELAKHHVLLANTSGIMAEPIAEYVLGALFTISRGILPAIRADRDMWTLRQERPPMTLLKGKTAVIFGTGDIGSTIATKLQALGLHTIGVSAHGRPAAGFDQVMTDVATHEAAGRADVVINALPLTPDTKHFYDEAFFAAASKQPLFINIGRGPSVDMAALTQALKNKQISAAALDVVDPEPLPQDSPLWGMTNVLLTPHISGTVPQLRDKVFKIFNDNLKTLISSGQLASHQVDLTRGY is ____.
3.63

Query: Km; subject: LaPPR (Lactobacillus sp. CGMCC 9967; H143D/H89M/P256C) (protein, homodimer) MMKILNSFSLKPEQRQTLEAAGHTVIDADKLDDATAQQIDVVYGWNAAATRVNFDRLQFVQAMSAGVDYLPLAELAKHHVLLANTSGIMAEPIAEYVLGALFTISRGILPAIRADRDMWTLRQERPPMTLLKGKTAVIFGTGDIGSTIATKLQALGLHTIGVSAHGRPAAGFDQVMTDVATHEAAGRADVVINALPLTPDTKHFYDEAFFAAASKQPLFINIGRGPSVDMAALTQALKNKQISAAALDVVDPEPLCQDSPLWGMTNVLLTPHISGTVPQLRDKVFKIFNDNLKTLISSGQLASHQVDLTRGY
2.52

So what's the measured Km for this one? LaPPR (Lactobacillus sp. CGMCC 9967; H89M) (protein, homodimer) MMKILNSFSLKPEQRQTLEAAGHTVIDADKLDDATAQQIDVVYGWNAAATRVNFDRLQFVQAMSAGVDYLPLAELAKHHVLLANTSGIMAEPIAEYVLGALFTISRGILPAIRADRDMWTLRQERPPMTLLKGKTAVIFGTGHIGSTIATKLQALGLHTIGVSAHGRPAAGFDQVMTDVATHEAAGRADVVINALPLTPDTKHFYDEAFFAAASKQPLFINIGRGPSVDMAALTQALKNKQISAAALDVVDPEPLPQDSPLWGMTNVLLTPHISGTVPQLRDKVFKIFNDNLKTLISSGQLASHQVDLTRGY
5.74

Continuing:
// Km lookup, key: LaPPR (Lactobacillus sp. CGMCC 9967) (protein, homodimer) MMKILNSFSLKPEQRQTLEAAGHTVIDADKLDDATAQQIDVVYGWNAAATRVNFDRLQFVQAMSAGVDYLPLAELAKHHVLLANTSGIHAEPIAEYVLGALFTISRGILPAIRADRDMWTLRQERPPMTLLKGKTAVIFGTGHIGSTIATKLQALGLHTIGVSAHGRPAAGFDQVMTDVATHEAAGRADVVINALPLTPDTKHFYDEAFFAAASKQPLFINIGRGPSVDMAALTQALKNKQISAAALDVVDPEPLPQDSPLWGMTNVLLTPHISGTVPQLRDKVFKIFNDNLKTLISSGQLASHQVDLTRGY
6.20

The reported numbers originate from paper PMC10992476.
